The reported numbers originate from PubChem BioAssay (NCI).

# growth annotations
- Test system: OVCAR-8 ovarian
- experimental-details: NCI-60 one-dose screen, 48 h (100 = growth as untreated, 0 = no growth, -100 = all killed)
- recorded-conditions: 10 µM unless noted
This is part of a sample that, as a whole, favours compounds with a hit. Of some 83,000 tested, about 20% had one in any assay.
Write it as a number; the unit % goes unstated.

Known growth results, listed for orientation:
CN(C)CCCCNc1ccc(NCCCCN(C)C)c2c1C(=O)c1c(O)ccc(O)c1C2=O -73.1
CCN(CC)CCOc1ccc(/C(=C(\C)c2ccc(OC)c(F)c2)c2ccc(Cl)cc2)cc1 76.7

Look up growth with OVCAR-8 ovarian for this molecule: Cc1c(C(=O)O)nnn1-c1nccs1
91.6

Look up growth with OVCAR-8 ovarian for this molecule: COc1ccccc1NC(=O)Nc1ccc(-c2nc3ccccc3o2)cc1
102

Look up growth with OVCAR-8 ovarian for this molecule: Cc1ccc2c(n1)C(=O)C(Oc1ccc(F)cc1)=CC2=O
87

Look up growth with OVCAR-8 ovarian for this molecule: COc1ccc(Oc2nc(Nc3ccc(N4CCCCC4)nc3)ncc2NC(=O)c2cc(OC)cc(OC)c2)cc1
57

Look up growth with OVCAR-8 ovarian for this molecule: Clc1cnc(Nc2ccc(OCCN3CCCC3)cc2)nc1NCc1ccco1
20.2

Look up growth with OVCAR-8 ovarian for this molecule: COc1ccc(-c2cncnc2N)cc1OC
105

Look up growth with OVCAR-8 ovarian for this molecule: COc1ccc(-n2nnc(C(=O)NCCc3c[nH]c4ccc(F)cc34)c2C)cc1
98.6

Look up growth with OVCAR-8 ovarian for this molecule: Cn1ccc(Cc2cnc(N)s2)n1
94.5

Look up growth with OVCAR-8 ovarian for this molecule: CC(C)N(CCOC(=O)Nc1ccccc1Cl)C(C)C
99.7
